- Experimental Target: wild type AXL (wtAXL) receptor tyrosine kinase (Homo sapiens)
- Construct: WtAXL cDNA was cloned into vector pLXSN(ESK) and transfected into Phoenix E packaging cells
- Sequence (P30530 26-894): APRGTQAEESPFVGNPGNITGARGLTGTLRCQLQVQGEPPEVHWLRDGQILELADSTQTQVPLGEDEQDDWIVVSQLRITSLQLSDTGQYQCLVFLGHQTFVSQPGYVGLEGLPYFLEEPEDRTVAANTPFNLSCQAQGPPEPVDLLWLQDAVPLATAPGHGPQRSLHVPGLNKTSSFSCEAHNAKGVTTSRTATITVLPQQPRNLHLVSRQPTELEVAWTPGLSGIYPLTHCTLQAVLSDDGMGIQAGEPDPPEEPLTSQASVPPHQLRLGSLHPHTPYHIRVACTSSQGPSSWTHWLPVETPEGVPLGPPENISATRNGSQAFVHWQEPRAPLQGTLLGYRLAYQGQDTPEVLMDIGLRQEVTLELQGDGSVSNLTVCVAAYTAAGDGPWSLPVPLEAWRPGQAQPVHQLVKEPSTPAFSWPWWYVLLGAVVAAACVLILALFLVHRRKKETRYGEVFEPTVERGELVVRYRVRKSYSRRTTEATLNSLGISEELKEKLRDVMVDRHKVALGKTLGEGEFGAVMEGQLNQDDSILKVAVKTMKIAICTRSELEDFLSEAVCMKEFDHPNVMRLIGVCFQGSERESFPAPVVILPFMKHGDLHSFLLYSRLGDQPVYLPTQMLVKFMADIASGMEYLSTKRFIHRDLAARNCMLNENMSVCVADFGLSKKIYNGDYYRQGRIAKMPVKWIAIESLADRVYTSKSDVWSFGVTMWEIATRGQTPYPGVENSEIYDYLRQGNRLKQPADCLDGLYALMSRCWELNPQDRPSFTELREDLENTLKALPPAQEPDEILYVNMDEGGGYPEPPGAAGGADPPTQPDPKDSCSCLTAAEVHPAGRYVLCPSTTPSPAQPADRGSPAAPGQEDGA
- Run Description: NIH-3T3-AXL cellular tyrosine kinase assay (inhibition of AXL phosphorylation)
- Conditions Used: AXL phosphorylation in NIH-3T3-AXL (clone 22) cells, serum-depleted, 2 h with compound, immunoprecipitation / anti-phosphotyrosine blot
pIC50: −log10 of the molar value.
Measured Endpoint: pIC50

Incoming: Request the reported pIC50 associated with COc1cc2nccc(Oc3ccc(NS(=O)(=O)c4ccc(Br)cc4C(F)(F)F)c(F)c3)c2cc1OC [Example A48]
Outgoing: 5.82

Incoming: Request the reported pIC50 associated with COc1cc2c(Oc3ccc(NS(=O)(=O)c4ccccc4Br)cc3F)ccnc2cc1OCCCN1CCC(C)CC1 [Example D18]
Outgoing: 6.82

Incoming: Request the reported pIC50 associated with COc1cc2nccc(Oc3ccc(NS(=O)(=O)c4cccc(Oc5ccccc5)c4)cc3F)c2cc1OC [Example A98]
Outgoing: 6.13

Incoming: Request the reported pIC50 associated with COc1cc2nccc(Oc3ccc(NS(=O)(=O)c4ccc(Br)cc4OC(F)(F)F)cc3)c2cc1OC [Example A149]
Outgoing: < 5.52

Incoming: Request the reported pIC50 associated with COc1cc(C)c(C)cc1S(=O)(=O)Nc1ccc(Oc2cc(C)nc3c(C(F)(F)F)cccc23)c(F)c1 [Example C10]
Outgoing: < 5.00

Incoming: Request the reported pIC50 associated with COc1cc2nccc(Oc3ccc(NS(=O)(=O)c4c(F)cccc4F)c(F)c3)c2cc1OC [Example A14]
Outgoing: 5.85

Incoming: Request the reported pIC50 associated with COc1cc2c(Oc3ccc(NS(=O)(=O)c4ccccc4C(F)(F)F)c(C)c3)ccnc2cc1OCCN1CCOCC1 [Example D11]
Outgoing: < 5.52

Incoming: Request the reported pIC50 associated with COc1cc2nccc(Oc3ccc(NS(=O)(=O)c4ccc(Cl)cc4F)c(C)c3)c2cc1OC [Example A153]
Outgoing: < 5.00

Incoming: Request the reported pIC50 associated with COc1cc2nccc(Oc3ccc(NS(=O)(=O)c4cc(Cl)cc(Cl)c4O)cc3OC)c2cc1OC [Example A156]
Outgoing: < 6.00

Incoming: Request the reported pIC50 associated with Cc1cc(Oc2ccc(NS(=O)(=O)c3ccc(F)c(Cl)c3)c(F)c2)c2cccc(C(F)(F)F)c2n1 [Example C12]
Outgoing: < 5.00

Incoming: Request the reported pIC50 associated with COc1cc2c(Oc3ccc(NS(=O)(=O)c4ccccc4F)cc3F)ccnc2cc1OCCCN1CCCC(C)C1 (centres unmarked) [Example D30]
Outgoing: 7.09

Incoming: Request the reported pIC50 associated with COc1cc2nccc(Oc3ccc(NS(=O)(=O)c4ccc(OC)c(C(C)(C)C)c4)cc3)c2cc1OC [Example A70]
Outgoing: < 5.00

Incoming: Request the reported pIC50 associated with COc1cc2nccc(Oc3ccc(NS(=O)(=O)c4ccc(-c5ccccc5)cc4)cc3F)c2cc1OC [Example A107]
Outgoing: < 5.00

Incoming: Request the reported pIC50 associated with Cc1cc(Oc2ccc(NS(=O)(=O)c3ccc(C)s3)c(F)c2)c2cc(F)ccc2n1 [Example B7]
Outgoing: < 5.00

----------
Would you mind telling me the reported melting point of each entry?

Incoming: Request the reported melting point associated with COc1cc2nccc(Oc3ccc(NS(=O)(=O)c4c(Cl)cccc4Cl)c(F)c3)c2cc1OC
Outgoing: 217 to 218 °C

Incoming: Request the reported melting point associated with COc1cc2nccc(Oc3ccc(NS(=O)(=O)c4cc(F)ccc4F)cc3F)c2cc1OC
Outgoing: 232 to 234 °C

Incoming: Request the reported melting point associated with COc1cc2nccc(Oc3ccc(NS(=O)(=O)c4ccc(Br)cc4C(F)(F)F)c(F)c3)c2cc1OC
Outgoing: 242 to 244 °C

Incoming: Request the reported melting point associated with COc1cc2nccc(Oc3ccc(NS(=O)(=O)c4ccc(Br)c(C)c4)c(F)c3)c2cc1OC
Outgoing: 199 to 201 °C

Incoming: Request the reported melting point associated with COc1cc2nccc(Oc3ccc(NS(=O)(=O)c4cccc(-c5ccccc5)c4)cc3C)c2cc1OC
Outgoing: 178 to 180 °C

Incoming: Request the reported melting point associated with COc1cc2nccc(Oc3ccc(NS(=O)(=O)c4ccccc4)c(F)c3)c2cc1OC
Outgoing: 234 to 235 °C

Incoming: Request the reported melting point associated with COc1cc2nccc(Oc3ccc(NS(=O)(=O)c4cccc(-c5ncccn5)c4)cc3C)c2cc1OC
Outgoing: 188 to 190 °C

Incoming: Request the reported melting point associated with Cc1cc(Oc2ccc(NS(=O)(=O)c3cccc(Br)c3)cc2)c2cc(F)ccc2n1
Outgoing: 183 to 184 °C

Incoming: Request the reported melting point associated with COc1cc2nccc(Oc3ccc(NS(=O)(=O)c4cc(Cl)cc(Cl)c4O)c(F)c3)c2cc1OC
Outgoing: 232 to 234 °C

Incoming: Request the reported melting point associated with COc1cc2nccc(Oc3ccc(NS(=O)(=O)c4ccccc4OC(F)(F)F)cc3OC)c2cc1OC
Outgoing: 211 to 212 °C

Incoming: Request the reported melting point associated with COc1ccc(S(=O)(=O)Nc2ccc(Oc3ccnc4cc(OC)c(OC)cc34)cc2)cc1Br
Outgoing: 211 to 212 °C

Incoming: Request the reported melting point associated with COc1cc2c(Oc3ccc(NS(=O)(=O)c4ccccc4C(F)(F)F)cc3F)ccnc2cc1OCCCN1CCC(C)CC1
Outgoing: 110 to 112 °C

Incoming: Request the reported melting point associated with COc1cc2nccc(Oc3ccc(NS(=O)(=O)c4cccc(C(F)(F)F)c4)c(F)c3)c2cc1OC
Outgoing: 230 to 231 °C

Incoming: Request the reported melting point associated with COc1cc(S(=O)(=O)Nc2ccc(Oc3ccnc4cc(OC)c(OC)cc34)cc2)ccc1F
Outgoing: 222 to 224 °C
